# subject-of-test: RORγt (Homo sapiens, UniProt P51449)
# Sequence (P51449 1-497 isoform P51449-2): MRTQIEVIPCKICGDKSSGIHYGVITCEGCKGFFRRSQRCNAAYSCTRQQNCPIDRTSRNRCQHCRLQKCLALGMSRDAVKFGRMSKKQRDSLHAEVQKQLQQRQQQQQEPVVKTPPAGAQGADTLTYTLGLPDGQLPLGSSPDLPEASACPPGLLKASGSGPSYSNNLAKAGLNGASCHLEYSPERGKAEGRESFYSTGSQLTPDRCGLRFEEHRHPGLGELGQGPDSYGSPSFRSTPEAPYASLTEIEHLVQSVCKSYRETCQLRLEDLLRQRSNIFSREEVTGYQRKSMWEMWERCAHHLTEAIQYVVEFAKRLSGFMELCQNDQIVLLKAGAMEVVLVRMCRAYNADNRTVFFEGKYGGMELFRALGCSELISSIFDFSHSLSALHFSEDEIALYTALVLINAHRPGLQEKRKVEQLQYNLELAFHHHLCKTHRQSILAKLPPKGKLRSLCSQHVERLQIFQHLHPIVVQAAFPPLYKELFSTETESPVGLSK
# protocol-description: Jurkat reporter test (human IL-17 ROR response element luciferase reporter)
# Assay type: cell-based
# test-parameters: Jurkat, read-out: luminescence level inhibitory rate (%) at test compound 3 μM
Please go through the items and note down their inhibition at 3 µM.
Your answer is read as %, so omit the unit and give the number.

Request: Requested field: inhibition at 3 µM. Item: COc1ccc(C(C(=O)Nc2ccc([Si](C)(C)C)c(F)c2)N(C)C(=O)c2cc(O)no2)cc1 (stereo not shown) [Example 15]
Result: 99.4

Request: Please report the recorded inhibition at 3 µM for COc1ccc(C(NC(=O)C2CNC(=O)C2)C(=O)Nc2ccc([Si](C)(C)C)cc2)cc1 (stereo not shown) [Example 13] .
Result: 92.6

Request: Query (compound): COCc1ccc([C@@H](NC(=O)CCC#N)C(=O)Nc2cc(F)c([Si](C)(C)C)c(F)c2)cc1 [Example 73] ; field requested: inhibition at 3 µM
Result: 97.9

Request: Reported inhibition at 3 µM for C[Si](C)(C)c1ccc(NC(=O)C(NC(=O)[C@@H]2CNC(=O)C2)C2CCC(F)(F)CC2)cc1F (stereo partly shown) [Example 5] : what is it?
Result: 98

Request: Reported inhibition at 3 µM, compound COCc1ccc([C@@H](NC(=O)Cn2cnccc2=O)C(=O)Nc2cc(F)c([Si](C)(C)C)c(F)c2)cc1 [Example 58] : ____
Result: 98.4

Request: Can you look up the measured inhibition at 3 µM of COCc1ccc([C@@H](NC(=O)CCC(F)(F)F)C(=O)Nc2ccc([Si](C)(C)C)c(F)c2)cc1 [Example 94] for me?
Result: 101

Request: Requested field: inhibition at 3 µM. Item: COc1ccc([C@H](C(=O)Nc2cc(F)c([Si](C)(C)C)cc2F)N(C)C(=O)c2cc(O)no2)cc1 [Example 25]
Result: 100

---

Would you kindly list inhibition at 1 µM for each of these compounds?
# subject-of-test: RORγt (Homo sapiens, UniProt P51449)
# protocol-description: Cofactor recruitment test (Alpha Screen, biotinylated SRC-1 peptide)
# Assay type: biochemical
# test-parameters: read-out: signal value inhibitory rate (%) at test compound 1 μM
Your answer is read as %, so omit the unit and give the number.

Request: Record request: inhibition at 1 µM value, item COCc1ccc([C@@H](NC(=O)Cc2cc(O)no2)C(=O)Nc2cc(F)c([Si](C)(C)C)c(F)c2)cc1 [Example 76]
Result: 98.5

Request: Item under review: C[Si](C)(C)c1c(F)cc(NC(=O)C(NC(=O)Cn2cnccc2=O)C2CCOCC2)cc1F (stereo not shown) [Example 1] . Reported inhibition at 1 µM?
Result: 72.7

Request: Returns the measured inhibition at 1 µM for the input compound. Input: COc1ccc([C@@H](NC(=O)[C@@H]2CNC(=O)C2)C(=O)Nc2ccc([Si](C)(C)C)c(F)c2)cc1 [Example 50]
Result: 91.5

Request: Can you look up the measured inhibition at 1 µM of COCc1ccc([C@@H](NC(=O)Cc2nnc(C)o2)C(=O)Nc2ccc(C(C)(C)C)c(F)c2)cc1 [Example 105] for me?
Result: 85.5

Request: State the recorded inhibition at 1 µM for this entry: COCc1ccc([C@@H](NC(=O)CCC#N)C(=O)Nc2cc(F)c([Si](C)(C)C)c(F)c2)cc1 [Example 73]
Result: 96.7

Request: // query inhibition at 1 µM value for entry COCc1ccc(C(NC(=O)Cn2cnccc2=O)C(=O)Nc2cc(F)c([Si](C)(C)C)c(F)c2)cc1 (stereo not shown) [Example 40]
Result: 98.7

Request: # query: inhibition at 1 µM of entry COCc1ccc([C@@H](NC(=O)c2cc(O)no2)C(=O)Nc2cc(F)c([Si](C)(C)C)c(F)c2)cc1 [Example 82]
Result: 96.8
